# Tested on: Klebsiella aerogenes DSM 30053
# protocol-details: fold change of Histamine concentration vs plate DMSO controls (fold change (ratio)); higher = more amine produced, active = hit call of the paper (significant change in both replicates, either direction)
# recorded-conditions: incubation time: 27 h, anaerobic, 37 °C
Structures can show the parent of a compound that is named as a salt.
Below is a list of entries, each paired with its recorded fold change of Histamine concentration value.
Form: value (number only, do not type unit).

c1ccc(C2CN3CCSC3=N2)cc1 (centres undefined) [Tetramisole hydrochloride] (20 µM): 1.04
CNCC(O)c1ccc(O)c(O)c1 (centres undefined) [Racepinephrine hydrochloride] (20 µM): 0.938
Cn1c([N+](=O)[O-])cnc1COC(N)=O [Ronidazole] (20 µM): 0.617
O=C(Oc1cccc2cccnc12)c1ccccc1 [Benzoxiquine] (20 µM): 0.957
COc1cc([C@@H]2c3cc4c(cc3[C@@H](O[C@@H]3O[C@@H]5CO[C@@H](C)O[C@H]5[C@H](O)[C@H]3O)[C@H]3COC(=O)[C@H]23)OCO4)cc(OC)c1O [Etoposide] (20 µM): 0.858

Give the measured fold change of Histamine concentration for CC(=O)NCCCS(=O)(=O)O [Acamprosate calcium] (20 µM)
1.02

Give the measured fold change of Histamine concentration for COC(=O)CCc1ccc(OCC(O)CNC(C)C)cc1 (centres undefined) [Esmolol hydrochloride] (20 µM)
0.88

Give the measured fold change of Histamine concentration for CCC(C)n1ncn(-c2ccc(N3CCN(c4ccc(OCC5COC(Cn6cncn6)(c6ccc(Cl)cc6Cl)O5)cc4)CC3)cc2)c1=O (centres undefined) [Itraconazole] (20 µM)
1.13

Give the measured fold change of Histamine concentration for CC[C@@H]([C@H](C)O)n1ncn(-c2ccc(N3CCN(c4ccc(OC[C@@H]5CO[C@@](Cn6cncn6)(c6ccc(F)cc6F)C5)cc4)CC3)cc2)c1=O [Posaconazole hydrate] (20 µM)
1.11

Give the measured fold change of Histamine concentration for NC(N)=Nc1nc(CSCCN/C=N/S(=O)(=O)c2ccc(Br)cc2)cs1 [Ebrotidine] (20 µM)
1.03

Give the measured fold change of Histamine concentration for CC[C@H](C)C(=O)O[C@H]1CCC=C2C=C[C@H](C)[C@H](CC[C@@H]3C[C@@H](O)CC(=O)O3)[C@H]21 [Mevastatin] (20 µM)
0.995

Give the measured fold change of Histamine concentration for COc1cc2/c(=N/c3ccc(Br)cc3F)nc[nH]c2cc1OCC1CCN(C)CC1 [Vandetanib] (20 µM)
1.01

Give the measured fold change of Histamine concentration for CC[C@H]1OC(=O)[C@H](C)[C@@H](O[C@H]2C[C@@](C)(OC)[C@@H](O)[C@H](C)O2)[C@H](C)[C@@H](O[C@@H]2O[C@H](C)C[C@H](N(C)C)[C@H]2O)[C@](C)(OC)C[C@@H](C)C(=O)[C@H](C)[C@@H](O)[C@]1(C)O [Clarithromycin] (20 µM)
0.636

Give the measured fold change of Histamine concentration for Cc1c(O)c(=O)n(-c2ccccc2)n1C [Antipyrine, 4-hydroxy] (20 µM)
0.913
